Taken from paper PMC3388095.

- measured.on: p38α MAPK insert (Homo sapiens, UniProt Q16539, C119S/C162S/S252C)
- Construct: His-tag with PreScission Protease cleavage site (N); made in house; host or cells: E. coli BL21(DE3) Codon+RIL
- Sequence (Q16539 whole entry C119S/C162S/S252C): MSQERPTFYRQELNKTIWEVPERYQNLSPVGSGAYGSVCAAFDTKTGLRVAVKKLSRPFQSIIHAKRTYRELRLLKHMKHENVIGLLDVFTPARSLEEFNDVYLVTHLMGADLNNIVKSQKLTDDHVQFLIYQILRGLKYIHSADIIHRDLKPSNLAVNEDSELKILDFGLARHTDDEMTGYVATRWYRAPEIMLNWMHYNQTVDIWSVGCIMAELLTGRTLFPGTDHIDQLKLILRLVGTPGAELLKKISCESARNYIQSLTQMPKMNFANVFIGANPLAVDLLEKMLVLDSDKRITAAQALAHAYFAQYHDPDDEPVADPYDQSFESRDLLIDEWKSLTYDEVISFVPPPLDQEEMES
- procedure.details: FLiK direct binding assay, acrylodan-labeled p38α (S252C) MAPK insert / lipid binding site
- stated.conditions: binding to p38α MAPK insert; ratiometric acrylodan emission; each concentration in triplicate
measurement.kind: Kd (nM)

1. Nc1ccc2c(NCCc3ccccc3)nc(-c3ccccc3)nc2c1 [8b]
2. Nc1ccc2c(NCC3CC3)nc(-c3ccccc3)nc2c1 [6b]
3. O=[N+]([O-])c1ccc2c(NCC3CC3)nc(-c3ccccc3)nc2c1 [6a]
4. O=[N+]([O-])c1ccc2c(NCc3ccccc3)nc(-c3ccncc3)nc2c1 [7c]
[in] Order the items by recorded Kd; the first position goes to the largest value. // rank by listing labels in the order requested
[out] 2, 1, 4, 3
